# System: hCoV-229E
# Type: cell-based, human corona virus 229E
# stated-conditions: […]; (*) mean of three independent experiments ± SEM
pEC50: −log10 of the molar value.
value-type: pEC50

• COc1ccc(C(=O)C2Sc3nnc(-n4nc(C)cc4C)n3NC2c2ccco2)cc1 (racemic) [Compound 5q] = < 4.00
• Cc1cc(C)n(-c2nnc3n2NC(c2ccco2)C(C(=O)c2ccc([N+](=O)[O-])cc2)S3)n1 (racemic) [Compound 5t] = < 4.00
• Cc1cc(C)n(-c2nnc3n2NC(c2ccc(Cl)cc2)C(C(=O)c2ccc(Br)cc2)S3)n1 (racemic) [5 g] = < 4.00
• Cc1ccc(C(=O)C2Sc3nnc(-n4nc(C)cc4C)n3NC2c2cc(F)c(F)c(F)c2)cc1 (racemic) [Compound 5j] = < 4.00
• Cc1cc(C)n(-c2nnc3n2NC(c2cc(F)c(F)c(F)c2)C(C(=O)c2ccccc2)S3)n1 (racemic) [5 k] = < 4.00
• COc1ccc(C2=C(C(=O)c3ccc([N+](=O)[O-])cc3)Sc3nnc(-n4nc(C)cc4C)n3N2)c(OC)c1 [Compound 5p] = < 4.00
• Cc1ccc(C(=O)C2Sc3nnc(-n4nc(C)cc4C)n3NC2c2ccco2)cc1 (racemic) [Compound 5r] = < 4.00

Provenance of the data: paper PMC8223195
